assay.protocol: Probe fluorescence ratio response to linolenic acid relative to ADIFAB2
Format: binding
recorded.conditions: response relative to ADIFAB2
Description: In an alternate preferred embodiment, the protein is rI-FABP that has Ala substituted for Leu at position 72 (rI-FABP-L72A) with the resulting probe named ADIFAB2. […] ADIFAB2 also has an altered spectral response, making it especially useful for measurements of FFAu in blood samples (Apple et al, Clinical Proteomics, (2004) 1:41-44, U.S. patent application Ser. No. 10/670,958). […] The baseline value for this ratio, measured in the absence of analyte, is designated R0. […]
readout: DR/DR LNA
Answer with a number only.

Lookup: Give reported DR/DR LNA value for 38F1, 72A (protein, listed as Rattus norvegicus, PEPTIDE (1)...(131) wild-type rat intestinal fatty acid binding protein) AFDGTWKVDRNENYEKFMEKMGINVVKRKLGAHDNLKFTITQEGNKFTVKESSNFRNIDVVFELGVDFAYSAADGTELTGTWTMEGNKLVGKFKRVDNGKELIAVREISGNELIQTYTYEGVEAKRIFKKE
Found: 0.96

Lookup: Give reported DR/DR LNA value for 115F1, 72A (protein, listed as Rattus norvegicus, PEPTIDE (1)...(131) wild-type rat intestinal fatty acid binding protein) AFDGTWKVDRNENYEKFMEKMGINVVKRKLGAHDNLKLTITQEGNKFTVKESSNFRNIDVVFELGVDFAYSAADGTELTGTWTMEGNKLVGKFKRVDNGKELIAVREISGNELIFTYTYEGVEAKRIFKKE
Found: 1.49
